molecular target: Human M4 (Homo sapiens); construct: expressed in transfected cells; host or cells: CHO-K1 (ATCC), stably co-expressing chimeric G protein Gqi5; assay: mAChR M4 cell-based functional assay (calcium flux, antagonist mode); conditions: % ACh maximum at 30 μM; read-out: Emin
# Lookup of reported remaining activity at 30 µM keyed by entry
Write it as a number; the unit % goes unstated.

In [3]: df
Out[3]:
                                   molecule  measurement_unit  recorded_result
0  CC(C)(C)CCN1CCC2(CC1)CC(Oc1ccc(-c3cc(F)ccc3Cl)nn1)C2                 %             3.01

Which remaining activity at 30 µM is reported for this molecule? Fc1ccc(Cl)c(-c2ccc(OCC3CC4(CCN(CC5CC6C=CC5C6)CC4)C3)nn2)c1 (centres unmarked)
3.96

Param item = Cc1cccnc1CN1CCC2(CC1)CC(Oc1ccc(-c3c(C)cnn3C)nn1)C2 ; retrieve measured remaining activity at 30 µM.
14.8

Entry Cc1nn(C)cc1-c1ccc(NC2CC3(CCN(CC4CC5C=CC4C5)CC3)C2)nn1 (centres unmarked) : reported remaining activity at 30 µM = ?
3.12

// query remaining activity at 30 µM value for entry Fc1ccc(Cl)c(-c2ccc(OCC3CC4(CCN(Cc5ccccc5)CC4)C3)nn2)c1
6.28

Can you look up the measured remaining activity at 30 µM of Cc1cccnc1CN1CCC2(CC1)CC(Oc1ccc(-c3cc(F)ccc3Cl)nn1)C2 for me?
3.36

If you can, please state the reported remaining activity at 30 µM value of Fc1ccc(Cl)c(-c2ccc(OC3CC4(CCN(CC5CCCOC5)CC4)C3)nn2)c1 (centres unmarked) .
5.55

Item under review: Cc1cnn(C)c1-c1ccc(OC2CC3(CCN(CC4CC5C=CC4C5)CC3)C2)nn1 (centres unmarked) . Reported remaining activity at 30 µM?
3.96

* * *

biological target: Human M4 (Homo sapiens, UniProt P08173); construct: expressed in transfected cells; host or cells: CHO-K1 (ATCC), stably co-expressing chimeric G protein Gqi5; assay: mAChR M4 cell-based functional assay (calcium flux, antagonist mode); details: % ACh maximum at 30 μM; read-out: Emin
// boundary case: remaining activity at 30 µM equal to 6% maps to not fulfilled; strictly smaller maps to fulfilled

Please review the entries below; each comes with its answer.
                                   compound          class
0  Cc1nn(C)cc1-c1ccc(NCC2CC3(CCN(CC4CCCCC4)CC3)C2)nn1  not fulfilled
1  Cc1nn(C)cc1-c1ccc(NC2CC3(CCN(CCC(C)(C)C)CC3)C2)nn1      fulfilled
2  Cc1nn(C)cc1-c1ccc(NC2CC3(CCN(CC4CCOCC4)CC3)C2)nn1  not fulfilled
3  Fc1ccc(Cl)c(-c2ccc(NCC3CC4(CCN(Cc5ccccc5)CC4)C3)nn2)c1      fulfilled
4  Cc1nn(C)cc1-c1ccc(NCC2CC3(CCN(Cc4ccccc4)CC3)C2)nn1  not fulfilled
5  Cc1nn(C)cc1-c1ccc(OC2CC3(CCN(Cc4ccccc4)CC3)C2)nn1      fulfilled

Below 6% on remaining activity at 30 µM? Entry Cc1nn(C)cc1-c1ccc(OC2CC3(CCN(CC4CCCOC4)CC3)C2)nn1 (centres unmarked)
not fulfilled

remaining activity at 30 µM under 6%? Item: Cc1nn(C)cc1-c1ccc(NCC2CC3(CCN(CC45CC6CC(CC(C6)C4)C5)CC3)C2)nn1
fulfilled

* * *

biological target: Human M4 (Homo sapiens); construct: expressed in transfected cells; host or cells: CHO-K1 (ATCC), stably co-expressing chimeric G protein Gqi5; experiment: mAChR M4 cell-based functional assay (calcium flux, antagonist mode); conditions: % ACh maximum at 30 μM; read-out: Emin
Threshold-based label: remaining activity at 30 µM under 6% gives yes, remaining activity at 30 µM not under 6% gives no.

Consider CC(C)(C)CCN1CCC2(CC1)CC(COc1ccc(-c3cc(F)ccc3Cl)nn1)C2 . Does its remaining activity at 30 µM lie strictly below 6%?
yes

Given the entry Cc1cccnc1CN1CCC2(CC1)CC(Nc1ccc(-c3c(C)cnn3C)nn1)C2 , would its reported remaining activity at 30 µM be below 6%?
no

Find out if reported remaining activity at 30 µM for Cc1cnn(C)c1-c1ccc(OC2CC3(CCN(CC4CCSCC4)CC3)C2)nn1 is less than 6%
yes

Field: below-cutoff. Rule: recorded remaining activity at 30 µM strictly less than 6%. Subject: Cc1nn(C)cc1-c1ccc(NCC2CC3(CCN(Cc4ccccn4)CC3)C2)nn1
no

API: query returns whether the compound falls strictly under 6% in remaining activity at 30 µM. Query: Cc1cccnc1CN1CCC2(CC1)CC(Oc1ccc(-c3cn(C)nc3C)nn1)C2
no

In plain terms, does Fc1ccc(Cl)c(-c2ccc(OC3CC4(CCN(CC5CCCCC5)CC4)C3)nn2)c1 come in under 6% for remaining activity at 30 µM?
yes

Say whether its remaining activity at 30 µM is strictly beneath 6%. Entry: Cc1nn(C)cc1-c1ccc(NCC2CC3(CCN(Cc4ccccc4F)CC3)C2)nn1
no

* * *

target: Human M4 (Homo sapiens, UniProt P08173); construct: expressed in transfected cells; host or cells: CHO-K1 (ATCC), stably co-expressing chimeric G protein Gqi5; assay: mAChR M4 cell-based functional assay (calcium flux, antagonist mode); details: % ACh maximum at 30 μM; read-out: Emin
remaining activity at 30 µM strictly under 5% means Y; at 5% or over means N.

Reference set, count: 3
                                   molecule  class
0  Cc1nn(C)cc1-c1ccc(NCC2CC3(CCN(CCC(C)(C)C)CC3)C2)nn1      Y
1  Cc1nn(C)cc1-c1ccc(OC2CC3(CCN(CC4CCCCC4)CC3)C2)nn1      Y
2  Cc1nn(C)cc1-c1ccc(OC2CC3(CCN(CC4CCOCC4)CC3)C2)nn1      N

Strictly below 5%: is that where remaining activity at 30 µM of Fc1ccc(Cl)c(-c2ccc(NCC3CC4(CCN(CC5CCOCC5)CC4)C3)nn2)c1 sits?
Y

Item Cc1nn(C)cc1-c1ccc(OC2CC3(CCN(CC4CC5C=CC4C5)CC3)C2)nn1 (centres unmarked) : remaining activity at 30 µM beneath 5%, strictly?
Y

* * *

molecular target: Human M4 (Homo sapiens, UniProt P08173); experiment: mAChR M4 cell-based functional assay (calcium flux, antagonist mode); conditions: M4/Gqi5/CHO-K1 cells; concentration-dependent decrease of the EC80 acetylcholine response
Listed compounds paired with reported pIC50
Scale: negative log10 of molar concentration, which is what pIC50 denotes.

Consider the following illustrative entries.
                                   compound                                   target  recorded_result
0  Cc1nn(C)cc1-c1ccc(NCC2CC3(CCN(CC45CC6CC(CC(C6)C4)C5)CC3)C2)nn1 [Compound 57]  Human M4 (Homo sapiens, UniProt P08173)             6.52
1  Cc1nn(C)cc1-c1ccc(OC2CC3(CCN(CCC(C)(C)C)CC3)C2)nn1 [Compound 13]  Human M4 (Homo sapiens, UniProt P08173)             6.70

// pIC50 lookup, key: Cc1cnn(C)c1-c1ccc(OC2CC3(CCN(CC4CCOCC4)CC3)C2)nn1 [Compound 35]
5.20

I would be grateful if you could share the reported pIC50 for Fc1ccc(Cl)c(-c2ccc(OC3CC4(CCN(CC5CCCOC5)CC4)C3)nn2)c1 (centres unmarked) [Compound 20] .
5.75

Recorded pIC50 of Cc1nn(C)cc1-c1ccc(NCC2CC3(CCN(Cc4ccccc4F)CC3)C2)nn1 [Compound 54] , please.
5.95

Fill in the blank: the reported pIC50 of Cc1nn(C)cc1-c1ccc(NCC2CC3(CCN(Cc4ccc(F)cc4)CC3)C2)nn1 [Compound 58] is ____.
5.29

Recorded pIC50 for Cc1nn(C)cc1-c1ccc(NC2CC3(CCN(CC(C)C(C)(C)C)CC3)C2)nn1 (centres unmarked) [Compound 4] , please?
5.99

I'd like to know its pIC50. The compound in question is Cc1cnn(C)c1-c1ccc(OC2CC3(CCN(CC4CCSCC4)CC3)C2)nn1 [Compound 36]
5.92

Which pIC50 is listed for CC(C)(C)CCN1CCC2(CC1)CC(COc1ccc(-c3cc(F)ccc3Cl)nn1)C2 [Compound 60] ?
6.52

* * *

Biological target: Human M4 (Homo sapiens, UniProt P08173)
Sequence (P08173 1-479): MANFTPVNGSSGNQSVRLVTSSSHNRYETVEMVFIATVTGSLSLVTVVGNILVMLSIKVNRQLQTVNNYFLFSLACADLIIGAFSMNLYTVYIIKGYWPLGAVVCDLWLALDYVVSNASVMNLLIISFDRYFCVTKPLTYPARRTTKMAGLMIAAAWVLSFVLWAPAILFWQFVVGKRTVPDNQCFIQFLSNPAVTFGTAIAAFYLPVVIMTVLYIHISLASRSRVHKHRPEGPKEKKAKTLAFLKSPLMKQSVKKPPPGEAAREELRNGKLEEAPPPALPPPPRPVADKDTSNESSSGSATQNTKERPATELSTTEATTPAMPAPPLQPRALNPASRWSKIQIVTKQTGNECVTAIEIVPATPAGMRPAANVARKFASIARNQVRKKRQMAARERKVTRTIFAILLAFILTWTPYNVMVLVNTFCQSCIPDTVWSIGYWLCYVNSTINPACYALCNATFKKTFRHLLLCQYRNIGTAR
Assay: mAChR M4 cell-based functional assay (calcium flux, antagonist mode)
Conditions: M4/Gqi5/CHO-K1 cells; concentration-dependent decrease of the EC80 acetylcholine response
Description: Human or rat M4 cDNA, along with the chimeric G protein Gqi5, were transfected into Chinese hamster ovary (CHO-K1) cells purchased from the American Type Culture Collection using Lipofectamine2000. […] Calcium flux was measured using the Functional Drug Screening System (FDSS) 6000 or 7000 (Hamamatsu Corporation, Tokyo, Japan) as an increase in the fluorescent static ratio. […] Agonist activity was analyzed as a concentration-dependent increase in calcium mobilization upon compound addition. […]
MEASUREMENT LABEL: pIC50
Convention used: pIC50 is expressed as -log10 of the molar concentration.

In [3]: df
Out[3]:
                              line_notation  recorded_result
0  Cc1cccnc1CN1CCC2(CC1)CC(Oc1ccc(-c3c(C)cnn3C)nn1)C2             5.11
1  Cc1nn(C)cc1-c1ccc(NC2CC3(CCN(CC4CCSCC4)CC3)C2)nn1             6.48
2  Fc1ccc(Cl)c(-c2ccc(OC3CC4(CCN(CC5CCCCC5)CC4)C3)nn2)c1             6.12
3  Cc1cccnc1CN1CCC2(CC1)CC(Oc1ccc(-c3cn(C)nc3C)nn1)C2             5.57
4  Cc1cnn(C)c1-c1ccc(NC2CC3(CCN(CC4CCSCC4)CC3)C2)nn1             6.68

State the recorded pIC50 for this entry: Cc1nn(C)cc1-c1ccc(NCC2CC3(CCN(CCC(C)(C)C)CC3)C2)nn1
6.66

// pIC50 lookup, key: Fc1ccc(Cl)c(-c2ccc(NCC3CC4(CCN(Cc5ccc6c(c5)OCO6)CC4)C3)nn2)c1
5.69
